Data origin, for the record: patent US11458099B2

system: A. baumannii; test: MIC of AMPs; type: cell-based; conditions: Gram −
Ends that are not written are not given here.
# reported MIC; entries follow

substance: RRWWRWVVW-NH2 [Entry 4]
studySystem: A. baumannii
MIC: 10 µM

substance: H-WKWLKKWIK-NH2 [Entry 1]
studySystem: A. baumannii
MIC: 25 µM

substance: H-KRWHWWRRHWVVW-NH2 [SMAS-1]
studySystem: A. baumannii
MIC: 50 µM

substance: KRWWKWWRR-NH2 [Entry 3]
studySystem: A. baumannii
MIC: 80 µM

---

tested on: MS S. aureus; assay: MIC of AMPs; format: cell-based; settings: Gram +
Ends that are not written are not given here.

substance: H-KRWHWWRRHWVVW-NH2 [SMAS-1]
unitTag: µM
cmp: >
MIC: 80
//
substance: KRWWKWWRR-NH2 [Entry 3]
unitTag: µM
cmp: =
MIC: 80
//
substance: H-WKWLKKWIK-NH2 [Entry 1]
unitTag: µM
cmp: >
MIC: 80
//
substance: RRWWRWVVW-NH2 [Entry 4]
unitTag: µM
cmp: =
MIC: 20
